- condition: in methanol, 293.15 K
assayReadout: solubility (mole fraction)
Lab note: write the figure by itself, no unit.

Can you share its solubility (mole fraction)? I mean this compound: `O=c1cc(CBr)c2ccccc2[nH]1` 0.000186

----------
- condition: in isopropanol, 313.15 K
assayReadout: solubility (mole fraction)
Lab note: write the figure by itself, no unit.

Can you share its solubility (mole fraction)? I mean this compound: `O=c1cc(CBr)c2ccccc2[nH]1` 0.00036

----------
- condition: in DMF, 313.15 K
assayReadout: solubility (mole fraction)
Lab note: write the figure by itself, no unit.

Can you share its solubility (mole fraction)? I mean this molecule: `O=c1cc(CBr)c2ccccc2[nH]1` 0.00828

----------
- condition: in 2-butanone, 308.15 K
assayReadout: solubility (mole fraction)

Can you share its solubility (mole fraction)? I mean this compound: `O=c1cc(CBr)c2ccccc2[nH]1` 0.00071

----------
- condition: in n-butanol, 293.15 K
assayReadout: solubility (mole fraction)
Lab note: write the figure by itself, no unit.

Can you share its solubility (mole fraction)? I mean this compound: `O=c1cc(CBr)c2ccccc2[nH]1` 0.000391

----------
- condition: in isopropanol, 298.15 K
assayReadout: solubility (mole fraction)
Lab note: write the figure by itself, no unit.

Can you share its solubility (mole fraction)? I mean this molecule: `O=c1cc(CBr)c2ccccc2[nH]1` 0.000248

----------
- condition: in methanol, 273.15 K
assayReadout: solubility (mole fraction)
Lab note: write the figure by itself, no unit.

Can you share its solubility (mole fraction)? I mean this molecule: `O=c1cc(CBr)c2ccccc2[nH]1` 0.000113

----------
- condition: in isopropanol, 293.15 K
assayReadout: solubility (mole fraction)
Lab note: write the figure by itself, no unit.

Can you share its solubility (mole fraction)? I mean this compound: `O=c1cc(CBr)c2ccccc2[nH]1` 0.000224

----------
- condition: in methanol, 278.15 K
assayReadout: solubility (mole fraction)
Lab note: write the figure by itself, no unit.

Can you share its solubility (mole fraction)? I mean this molecule: `O=c1cc(CBr)c2ccccc2[nH]1` 0.000129

----------
- condition: in DMSO, 313.15 K
assayReadout: solubility (mole fraction)

Can you share its solubility (mole fraction)? I mean this compound: `O=c1cc(CBr)c2ccccc2[nH]1` 0.0338

----------
- condition: in acetonitrile, 278.15 K
assayReadout: solubility (mole fraction)
Lab note: write the figure by itself, no unit.

Can you share its solubility (mole fraction)? I mean this compound: `O=c1cc(CBr)c2ccccc2[nH]1` 9e-05

----------
- condition: in 1,4-dioxane, 303.15 K
assayReadout: solubility (mole fraction)
Lab note: write the figure by itself, no unit.

Can you share its solubility (mole fraction)? I mean this compound: `O=c1cc(CBr)c2ccccc2[nH]1` 0.00092

----------
- condition: in NMP, 278.15 K
assayReadout: solubility (mole fraction)
Lab note: write the figure by itself, no unit.

Can you share its solubility (mole fraction)? I mean this molecule: `O=c1cc(CBr)c2ccccc2[nH]1` 0.00524

----------
- condition: in NMP, 303.15 K
assayReadout: solubility (mole fraction)
Lab note: write the figure by itself, no unit.

Can you share its solubility (mole fraction)? I mean this compound: `O=c1cc(CBr)c2ccccc2[nH]1` 0.0108

----------
- condition: in DMSO, 308.15 K
assayReadout: solubility (mole fraction)
Lab note: write the figure by itself, no unit.

Can you share its solubility (mole fraction)? I mean this compound: `O=c1cc(CBr)c2ccccc2[nH]1` 0.0284

----------
- condition: in n-butanol, 278.15 K
assayReadout: solubility (mole fraction)
Lab note: write the figure by itself, no unit.

Can you share its solubility (mole fraction)? I mean this compound: `O=c1cc(CBr)c2ccccc2[nH]1` 0.000311

----------
- condition: in n-butanol, 313.15 K
assayReadout: solubility (mole fraction)
Lab note: write the figure by itself, no unit.

Can you share its solubility (mole fraction)? I mean this molecule: `O=c1cc(CBr)c2ccccc2[nH]1` 0.000558

----------
- condition: in DMF, 278.15 K
assayReadout: solubility (mole fraction)
Lab note: write the figure by itself, no unit.

Can you share its solubility (mole fraction)? I mean this compound: `O=c1cc(CBr)c2ccccc2[nH]1` 0.00272

----------
- condition: in DMSO, 293.15 K
assayReadout: solubility (mole fraction)
Lab note: write the figure by itself, no unit.

Can you share its solubility (mole fraction)? I mean this compound: `O=c1cc(CBr)c2ccccc2[nH]1` 0.0141

----------
- condition: in isopropanol, 308.15 K
assayReadout: solubility (mole fraction)
Lab note: write the figure by itself, no unit.

Can you share its solubility (mole fraction)? I mean this compound: `O=c1cc(CBr)c2ccccc2[nH]1` 0.000316

----------
- condition: in acetonitrile, 313.15 K
assayReadout: solubility (mole fraction)
Lab note: write the figure by itself, no unit.

Can you share its solubility (mole fraction)? I mean this compound: `O=c1cc(CBr)c2ccccc2[nH]1` 0.000223

----------
- condition: in ethanol, 298.15 K
assayReadout: solubility (mole fraction)
Lab note: write the figure by itself, no unit.

Can you share its solubility (mole fraction)? I mean this compound: `O=c1cc(CBr)c2ccccc2[nH]1` 0.000271

----------
- condition: in NMP, 308.15 K
assayReadout: solubility (mole fraction)
Lab note: write the figure by itself, no unit.

Can you share its solubility (mole fraction)? I mean this molecule: `O=c1cc(CBr)c2ccccc2[nH]1` 0.0125

----------
- condition: in n-propanol, 298.15 K
assayReadout: solubility (mole fraction)
Lab note: write the figure by itself, no unit.

Can you share its solubility (mole fraction)? I mean this molecule: `O=c1cc(CBr)c2ccccc2[nH]1` 0.000341

----------
- condition: in methanol, 313.15 K
assayReadout: solubility (mole fraction)
Lab note: write the figure by itself, no unit.

Can you share its solubility (mole fraction)? I mean this molecule: `O=c1cc(CBr)c2ccccc2[nH]1` 0.000303

----------
- condition: in 1,4-dioxane, 288.15 K
assayReadout: solubility (mole fraction)
Lab note: write the figure by itself, no unit.

Can you share its solubility (mole fraction)? I mean this molecule: `O=c1cc(CBr)c2ccccc2[nH]1` 0.000504

----------
- condition: in DMF, 293.15 K
assayReadout: solubility (mole fraction)

Can you share its solubility (mole fraction)? I mean this molecule: `O=c1cc(CBr)c2ccccc2[nH]1` 0.00464

----------
- condition: in DMF, 288.15 K
assayReadout: solubility (mole fraction)
Lab note: write the figure by itself, no unit.

Can you share its solubility (mole fraction)? I mean this compound: `O=c1cc(CBr)c2ccccc2[nH]1` 0.00399

----------
- condition: in 1,4-dioxane, 308.15 K
assayReadout: solubility (mole fraction)

Can you share its solubility (mole fraction)? I mean this molecule: `O=c1cc(CBr)c2ccccc2[nH]1` 0.00111

----------
- condition: in DMF, 273.15 K
assayReadout: solubility (mole fraction)
Lab note: write the figure by itself, no unit.

Can you share its solubility (mole fraction)? I mean this molecule: `O=c1cc(CBr)c2ccccc2[nH]1` 0.00214

----------
- condition: in 2-butanone, 303.15 K
assayReadout: solubility (mole fraction)

Can you share its solubility (mole fraction)? I mean this molecule: `O=c1cc(CBr)c2ccccc2[nH]1` 0.000634

----------
- condition: in ethanol, 273.15 K
assayReadout: solubility (mole fraction)
Lab note: write the figure by itself, no unit.

Can you share its solubility (mole fraction)? I mean this compound: `O=c1cc(CBr)c2ccccc2[nH]1` 0.000173

----------
- condition: in isopropanol, 278.15 K
assayReadout: solubility (mole fraction)
Lab note: write the figure by itself, no unit.

Can you share its solubility (mole fraction)? I mean this compound: `O=c1cc(CBr)c2ccccc2[nH]1` 0.000154

----------
- condition: in NMP, 283.15 K
assayReadout: solubility (mole fraction)
Lab note: write the figure by itself, no unit.

Can you share its solubility (mole fraction)? I mean this molecule: `O=c1cc(CBr)c2ccccc2[nH]1` 0.0062

----------
- condition: in acetonitrile, 288.15 K
assayReadout: solubility (mole fraction)
Lab note: write the figure by itself, no unit.

Can you share its solubility (mole fraction)? I mean this compound: `O=c1cc(CBr)c2ccccc2[nH]1` 0.000118

----------
- condition: in ethanol, 313.15 K
assayReadout: solubility (mole fraction)
Lab note: write the figure by itself, no unit.

Can you share its solubility (mole fraction)? I mean this compound: `O=c1cc(CBr)c2ccccc2[nH]1` 0.000385

----------
- condition: in n-propanol, 308.15 K
assayReadout: solubility (mole fraction)
Lab note: write the figure by itself, no unit.

Can you share its solubility (mole fraction)? I mean this molecule: `O=c1cc(CBr)c2ccccc2[nH]1` 0.000425

----------
- condition: in n-propanol, 293.15 K
assayReadout: solubility (mole fraction)
Lab note: write the figure by itself, no unit.

Can you share its solubility (mole fraction)? I mean this compound: `O=c1cc(CBr)c2ccccc2[nH]1` 0.000309
